System: NCI-H226
assayProtocol: Growth inhibition of human NCI-H226 cells assessed as cell growth at 10 uM after 48 hrs by sulforhodamine B assay
Format: functional
testParameters: NCI-H226, 48 h, read-out: Activity
# growth at 10 µM annotations

Sample answers from the record:
CCOc1ccc(-n2nc(C(=O)Nc3cc(F)cc(F)c3)nc2-c2cc(OC)c(OC)c(OC)c2)cc1
77.2%
CCOc1ccc(-n2nc(C(=O)Nc3ccc(F)c(F)c3)nc2-c2cc(OC)c(OC)c(OC)c2)cc1
69.1%
CCOc1ccc(-n2nc(C(=O)NCc3ccccc3OC)nc2-c2cc(OC)c(OC)c(OC)c2)cc1
62.5%

# growth at 10 µM lookup, item CCOc1ccc(-n2nc(C(=O)Nc3ccccc3)nc2-c2cc(OC)c(OC)c(OC)c2)cc1
80%

# growth at 10 µM lookup, item CCOc1ccc(-n2nc(C(=O)NCc3cccc(OC)c3)nc2-c2cc(OC)c(OC)c(OC)c2)cc1
89.4%

# growth at 10 µM lookup, item COc1cccc(-n2nc(C(=O)NCc3ccccc3OC)nc2-c2cc(OC)c(OC)c(OC)c2)c1
96.8%

# growth at 10 µM lookup, item CCOc1ccc(-n2nc(C(=O)Nc3cc(OC)c(OC)c(OC)c3)nc2-c2cc(OC)c(OC)c(OC)c2)cc1
78.1%

# growth at 10 µM lookup, item CCOc1ccc(-n2nc(C(=O)Nc3ccc(OC)c(O)c3)nc2-c2cc(OC)c(OC)c(OC)c2)cc1
96.5%

# growth at 10 µM lookup, item CCOc1ccc(-n2nc(C(=O)Nc3cccc(OC)c3)nc2-c2cc(OC)c(OC)c(OC)c2)cc1
77.3%

# growth at 10 µM lookup, item COc1cccc(-n2nc(C(=O)NCc3ccccc3C)nc2-c2cc(OC)c(OC)c(OC)c2)c1
87.9%

# growth at 10 µM lookup, item CCOc1ccc(-n2nc(C(=O)NCc3cc(F)cc(F)c3)nc2-c2cc(OC)c(OC)c(OC)c2)cc1
65.2%

----------
Test system: NCI-H23
assayProtocol: Growth inhibition of human NCI-H23 cells assessed as cell growth at 10 uM after 48 hrs by sulforhodamine B assay
Type: functional
testParameters: NCI-H23, 48 h, read-out: Activity
attributeMeasured: growth at 10 µM (%)
Give just the number in %; leave the unit off.

CCOc1ccc(-n2nc(C(=O)Nc3ccccc3OC)nc2-c2cc(OC)c(OC)c(OC)c2)cc1
97.8

# growth at 10 µM lookup, item CCOc1ccc(-n2nc(C(=O)NCc3cccc(OC)c3)nc2-c2cc(OC)c(OC)c(OC)c2)cc1
94.3

----------
Test system: TK-10
assayProtocol: Growth inhibition of human TK10 cells assessed as cell growth at 10 uM after 48 hrs by sulforhodamine B assay
Assay type: functional
testParameters: TK-10, 48 h, read-out: Activity
attributeMeasured: growth at 10 µM (%)
Give just the number in %; leave the unit off.

CCOc1ccc(-n2nc(C(=O)NCc3cc(F)cc(F)c3)nc2-c2cc(OC)c(OC)c(OC)c2)cc1
79.9

# growth at 10 µM lookup, item COc1cccc(-n2nc(C(=O)Nc3ccccc3)nc2-c2cc(OC)c(OC)c(OC)c2)c1
53.2

# growth at 10 µM lookup, item COc1cccc(-n2nc(C(=O)NCc3ccccc3OC)nc2-c2cc(OC)c(OC)c(OC)c2)c1
81

# growth at 10 µM lookup, item CCOc1ccc(-n2nc(C(=O)Nc3ccc(OC)c(O)c3)nc2-c2cc(OC)c(OC)c(OC)c2)cc1
107

# growth at 10 µM lookup, item CCOc1ccc(-n2nc(C(=O)NCc3ccccc3OC)nc2-c2cc(OC)c(OC)c(OC)c2)cc1
46.5

# growth at 10 µM lookup, item CCOc1ccc(-n2nc(C(=O)Nc3cc(F)cc(F)c3)nc2-c2cc(OC)c(OC)c(OC)c2)cc1
96.9

# growth at 10 µM lookup, item CCOc1ccc(-n2nc(C(=O)Nc3ccc(F)c(F)c3)nc2-c2cc(OC)c(OC)c(OC)c2)cc1
87.4

# growth at 10 µM lookup, item CCOc1ccc(-n2nc(C(=O)Nc3ccc(F)c(F)c3F)nc2-c2cc(OC)c(OC)c(OC)c2)cc1
101

# growth at 10 µM lookup, item CCOc1ccc(-n2nc(C(=O)Nc3ccccc3OC)nc2-c2cc(OC)c(OC)c(OC)c2)cc1
89.2

----------
Test system: LOX IMVI
assayProtocol: Growth inhibition of human LOXIMVI cells assessed as cell growth at 10 uM after 48 hrs by sulforhodamine B assay
Assay type: functional
testParameters: read-out: Activity
Classification field: class 1 = growth at 10 µM at or over 80%; class 0 = growth at 10 µM under 80%.

State whether the measured growth at 10 µM reaches 80%, counting equality as reaching it, for CCOc1ccc(-n2nc(C(=O)NCc3ccccc3OC)nc2-c2cc(OC)c(OC)c(OC)c2)cc1
class 0

State whether the measured growth at 10 µM reaches 80%, counting equality as reaching it, for COc1cccc(-n2nc(C(=O)NCc3ccccc3OC)nc2-c2cc(OC)c(OC)c(OC)c2)c1
class 1

State whether the measured growth at 10 µM reaches 80%, counting equality as reaching it, for CCOc1ccc(-n2nc(C(=O)Nc3ccc(F)c(F)c3)nc2-c2cc(OC)c(OC)c(OC)c2)cc1
class 0

----------
# growth at 10 µM annotations
Test system: BT-549
assayProtocol: Growth inhibition of human BT549 cells assessed as cell growth at 10 uM after 48 hrs by sulforhodamine B assay
Type: functional
testParameters: BT-549, 48 h, read-out: Activity
Give just the number in %; leave the unit off.

Sample answers from the record:
CCOc1ccc(-n2nc(C(=O)Nc3cc(F)cc(F)c3)nc2-c2cc(OC)c(OC)c(OC)c2)cc1
101
CCOc1ccc(-n2nc(C(=O)NCc3ccccc3OC)nc2-c2cc(OC)c(OC)c(OC)c2)cc1
33.9
CCOc1ccc(-n2nc(C(=O)Nc3ccccc3OC)nc2-c2cc(OC)c(OC)c(OC)c2)cc1
77.6

Param readout = growth at 10 µM; param system = BT-549; param query = CCOc1ccc(-n2nc(C(=O)Nc3ccc(F)c(F)c3F)nc2-c2cc(OC)c(OC)c(OC)c2)cc1 ; response: value
78.9

Param readout = growth at 10 µM; param system = BT-549; param query = CCOc1ccc(-n2nc(C(=O)Nc3ccccc3)nc2-c2cc(OC)c(OC)c(OC)c2)cc1 ; response: value
60.9

Param readout = growth at 10 µM; param system = BT-549; param query = COc1cccc(-n2nc(C(=O)NCc3ccccc3OC)nc2-c2cc(OC)c(OC)c(OC)c2)c1 ; response: value
103

Param readout = growth at 10 µM; param system = BT-549; param query = COc1cccc(-n2nc(C(=O)NCc3ccccc3C)nc2-c2cc(OC)c(OC)c(OC)c2)c1 ; response: value
86.2

Param readout = growth at 10 µM; param system = BT-549; param query = CCOc1ccc(-n2nc(C(=O)Nc3ccc(OC)c(O)c3)nc2-c2cc(OC)c(OC)c(OC)c2)cc1 ; response: value
103

Param readout = growth at 10 µM; param system = BT-549; param query = CCOc1ccc(-n2nc(C(=O)NCc3cc(F)cc(F)c3)nc2-c2cc(OC)c(OC)c(OC)c2)cc1 ; response: value
68.7

Param readout = growth at 10 µM; param system = BT-549; param query = CCOc1ccc(-n2nc(C(=O)Nc3cccc(OC)c3)nc2-c2cc(OC)c(OC)c(OC)c2)cc1 ; response: value
72.3

----------
System: CAKI-1
assayProtocol: Growth inhibition of human CAKI-1 cells assessed as cell growth at 10 uM after 48 hrs by sulforhodamine B assay
Assay type: functional
testParameters: CAKI-1, 48 h, read-out: Activity
attributeMeasured: growth at 10 µM (%)
Give just the number in %; leave the unit off.

CCOc1ccc(-n2nc(C(=O)Nc3cc(OC)c(OC)c(OC)c3)nc2-c2cc(OC)c(OC)c(OC)c2)cc1
77.4
CCOc1ccc(-n2nc(C(=O)NCc3ccccc3OC)nc2-c2cc(OC)c(OC)c(OC)c2)cc1
25.9

Could you now look at the following compound, please?
# growth at 10 µM lookup, item COc1cccc(-n2nc(C(=O)Nc3ccccc3)nc2-c2cc(OC)c(OC)c(OC)c2)c1
73.6

----------
# growth at 10 µM annotations
Test system: HOP-62
assayProtocol: Growth inhibition of human HOP62 cells assessed as cell growth at 10 uM after 48 hrs by sulforhodamine B assay
Type: functional
testParameters: HOP-62, 48 h, read-out: Activity
Reply with the number, then its unit.

Sample answers from the record:
COc1cccc(-n2nc(C(=O)NCc3ccccc3OC)nc2-c2cc(OC)c(OC)c(OC)c2)c1
85.9%
CCOc1ccc(-n2nc(C(=O)Nc3ccccc3)nc2-c2cc(OC)c(OC)c(OC)c2)cc1
55.7%
CCOc1ccc(-n2nc(C(=O)NCc3ccccc3OC)nc2-c2cc(OC)c(OC)c(OC)c2)cc1
62.2%

# growth at 10 µM lookup, item CCOc1ccc(-n2nc(C(=O)Nc3ccccc3OC)nc2-c2cc(OC)c(OC)c(OC)c2)cc1
86.5%

# growth at 10 µM lookup, item CCOc1ccc(-n2nc(C(=O)NCc3cccc(OC)c3)nc2-c2cc(OC)c(OC)c(OC)c2)cc1
72.4%

# growth at 10 µM lookup, item COc1cccc(-n2nc(C(=O)NCc3ccccc3C)nc2-c2cc(OC)c(OC)c(OC)c2)c1
71%

# growth at 10 µM lookup, item CCOc1ccc(-n2nc(C(=O)Nc3ccc(OC)c(O)c3)nc2-c2cc(OC)c(OC)c(OC)c2)cc1
99.3%

# growth at 10 µM lookup, item COc1cccc(-n2nc(C(=O)Nc3ccccc3)nc2-c2cc(OC)c(OC)c(OC)c2)c1
83.8%

# growth at 10 µM lookup, item CCOc1ccc(-n2nc(C(=O)Nc3cccc(OC)c3)nc2-c2cc(OC)c(OC)c(OC)c2)cc1
91.9%

# growth at 10 µM lookup, item CCOc1ccc(-n2nc(C(=O)NCc3cc(F)cc(F)c3)nc2-c2cc(OC)c(OC)c(OC)c2)cc1
75.2%

# growth at 10 µM lookup, item CCOc1ccc(-n2nc(C(=O)Nc3ccc(F)c(F)c3F)nc2-c2cc(OC)c(OC)c(OC)c2)cc1
86.5%
